- test_target: rat OX2R (Rattus norvegicus, UniProt P56719)
- Sequence (P56719 1-460): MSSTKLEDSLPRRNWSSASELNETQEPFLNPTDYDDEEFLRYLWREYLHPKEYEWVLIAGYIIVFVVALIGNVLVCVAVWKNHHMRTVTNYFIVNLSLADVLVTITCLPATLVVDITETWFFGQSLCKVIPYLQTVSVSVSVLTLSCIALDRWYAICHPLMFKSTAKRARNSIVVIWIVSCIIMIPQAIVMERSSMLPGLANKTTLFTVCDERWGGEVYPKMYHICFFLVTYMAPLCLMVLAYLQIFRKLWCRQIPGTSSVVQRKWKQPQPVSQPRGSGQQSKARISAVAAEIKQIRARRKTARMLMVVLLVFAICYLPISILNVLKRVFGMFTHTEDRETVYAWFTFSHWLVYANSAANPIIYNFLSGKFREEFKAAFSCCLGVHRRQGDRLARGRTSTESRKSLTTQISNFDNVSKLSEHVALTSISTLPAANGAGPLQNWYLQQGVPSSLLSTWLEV
- method_description: FLIPR orexin A-stimulated calcium accumulation, rat OX2R
- Format: cell-based
- condition: pKi, HEK cells, antagonist incubation 4 h
value_type: Ki (nM)

1) Cc1ccc(-n2nccn2)c(C(=O)N2CCN(c3nc4cc(Cl)ccc4o3)CC[C@H]2C)c1 : 0.427

* * *

- test_target: rat OX2R (Rattus norvegicus, UniProt P56719)
- method_description: FLIPR orexin A-stimulated calcium accumulation, rat OX2R
- Assay type: cell-based
- condition: pKi, HEK cells, antagonist incubation 1 h
value_type: Ki (nM)

1. Cc1ccc(-n2nccn2)c(C(=O)N2CCN(c3nc4cc(Cl)ccc4o3)CC[C@H]2C)c1 [Suvorexant] : 0.871

* * *

// Ki lookup, one value per entry
- test_target: rat OX1R (Rattus norvegicus)
- Construct: expressed in transfected cells; host or cells: HEK; cells from GNF, San Diego
- Sequence (P56718 1-416): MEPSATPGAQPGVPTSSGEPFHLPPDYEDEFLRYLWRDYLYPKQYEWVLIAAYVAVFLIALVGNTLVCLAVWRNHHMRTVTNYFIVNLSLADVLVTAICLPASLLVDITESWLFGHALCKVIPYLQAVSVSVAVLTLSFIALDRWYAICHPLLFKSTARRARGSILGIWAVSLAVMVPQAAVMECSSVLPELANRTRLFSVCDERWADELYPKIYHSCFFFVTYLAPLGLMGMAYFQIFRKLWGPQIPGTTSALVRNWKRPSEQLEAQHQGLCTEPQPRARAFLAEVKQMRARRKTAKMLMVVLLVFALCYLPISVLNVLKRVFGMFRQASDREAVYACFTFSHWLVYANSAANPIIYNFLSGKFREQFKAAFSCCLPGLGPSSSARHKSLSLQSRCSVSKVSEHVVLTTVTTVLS
- method_description: FLIPR orexin A-stimulated calcium accumulation, rat OX1R
- Type: cell-based
- condition: HEK cells, antagonist incubation 30 min
value_type: Ki

1. Cc1nc(C(=O)N2CCCC[C@H]2CNC(=O)c2cccc3occc23)c(-c2ccc(F)cc2)s1 : 0.257 nM
2. Cc1ccc(-c2ncccn2)c(C(=O)N2C[C@H](COc3ccc(F)cn3)CC[C@H]2C)c1 : 0.759 nM
3. CNC(=O)[C@@H](c1ccccc1)N1CCc2cc(OC)c(OC)cc2[C@@H]1CCc1ccc(C(F)(F)F)cc1 : 12.6 nM
4. COc1ccnc(N2CCC3(CCCN(Cc4c[nH]c5ccccc45)C3=O)CC2)n1 : 224 nM

* * *

- test_target: human OX1R (Homo sapiens, UniProt O43613)
- Construct: expressed in transfected cells; host or cells: CHO; cells from GNF, San Diego
- Sequence (O43613 whole entry): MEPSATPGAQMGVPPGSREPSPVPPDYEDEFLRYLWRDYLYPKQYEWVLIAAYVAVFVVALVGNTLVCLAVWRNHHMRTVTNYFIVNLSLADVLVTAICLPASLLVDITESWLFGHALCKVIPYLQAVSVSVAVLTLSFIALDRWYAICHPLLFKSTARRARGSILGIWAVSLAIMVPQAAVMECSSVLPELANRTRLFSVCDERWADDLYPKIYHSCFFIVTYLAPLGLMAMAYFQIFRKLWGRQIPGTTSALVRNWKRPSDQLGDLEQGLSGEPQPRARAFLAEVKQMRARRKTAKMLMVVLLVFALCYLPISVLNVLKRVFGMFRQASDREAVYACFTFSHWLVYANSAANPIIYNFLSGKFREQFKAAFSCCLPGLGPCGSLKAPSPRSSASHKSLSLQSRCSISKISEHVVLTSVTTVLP
- method_description: FLIPR orexin A-stimulated calcium accumulation, human OX1R
- Type: cell-based
- condition: CHO cells, antagonist incubation 30 min
pKi: −log10 of the molar value.
value_type: pKi

1) COc1ccnc(N2CCC3(CCCN(Cc4c[nH]c5ccccc45)C3=O)CC2)n1 [IPSU] : 6.32
2) Cc1nc(C(=O)N2CCCC[C@H]2CNC(=O)c2cccc3occc23)c(-c2ccc(F)cc2)s1 [SB-649868] : 9.03
3) Cc1ccc(-c2ncccn2)c(C(=O)N2C[C@H](COc3ccc(F)cn3)CC[C@H]2C)c1 [Filorexant] : 8.65

* * *

- test_target: rat OX1R (Rattus norvegicus)
- Construct: expressed in transfected cells; host or cells: HEK; cells from GNF, San Diego
- method_description: FLIPR orexin A-stimulated calcium accumulation, rat OX1R
- Assay type: cell-based
- condition: HEK cells, antagonist incubation 4 h
value_type: Ki (nM)

1. CNC(=O)[C@@H](c1ccccc1)N1CCc2cc(OC)c(OC)cc2[C@@H]1CCc1ccc(C(F)(F)F)cc1 : 17.4
2. Cc1ccc(-c2ncccn2)c(C(=O)N2C[C@H](COc3ccc(F)cn3)CC[C@H]2C)c1 : 1.2
3. Cc1nc(C(=O)N2CCCC[C@H]2CNC(=O)c2cccc3occc23)c(-c2ccc(F)cc2)s1 : 0.0724
4. COc1ccnc(N2CCC3(CCCN(Cc4c[nH]c5ccccc45)C3=O)CC2)n1 : 562

* * *

- test_target: rat OX2R (Rattus norvegicus, UniProt P56719)
- Sequence (P56719 1-460): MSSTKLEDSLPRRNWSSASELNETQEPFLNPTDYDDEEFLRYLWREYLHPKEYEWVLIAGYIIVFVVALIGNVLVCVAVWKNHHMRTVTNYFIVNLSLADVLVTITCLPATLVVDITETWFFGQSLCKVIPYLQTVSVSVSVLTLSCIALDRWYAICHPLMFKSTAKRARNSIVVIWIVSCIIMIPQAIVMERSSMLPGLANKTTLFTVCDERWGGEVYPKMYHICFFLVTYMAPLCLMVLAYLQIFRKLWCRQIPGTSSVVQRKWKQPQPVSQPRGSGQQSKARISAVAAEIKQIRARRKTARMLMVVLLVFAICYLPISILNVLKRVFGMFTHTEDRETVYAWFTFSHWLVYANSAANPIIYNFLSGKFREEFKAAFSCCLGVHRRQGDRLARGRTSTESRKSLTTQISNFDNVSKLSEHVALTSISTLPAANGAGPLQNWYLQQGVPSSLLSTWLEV
- method_description: FLIPR orexin A-stimulated calcium accumulation, rat OX2R
- Assay type: cell-based
- condition: HEK cells, antagonist incubation 1 h, read-out: pKi (converted)
- Source text: Chinese Hamster Ovary (CHO) cells stably transfected with the cDNA encoding the human OX1R (CHO-hOX1) or OX2R (CHO-hOX2) were used (kindly provided by T. Cremer and Dr. S. Geisse, NIBR Basel, Switzerland). For measurements of calcium accumulation using FLIPR® (Fluorescent Imaging Plate Reader) assay, CHO or Human Embryonic Kidney (HEK) cells stably expressing mouse, rat or human OX1R or OX2R (kindly provided by Dr. A. Chen, GNF, San Diego, CA, USA) were used. […]
// Ki lookup, one value per entry
value_type: Ki (nM)

1) CNC(=O)[C@@H](c1ccccc1)N1CCc2cc(OC)c(OC)cc2[C@@H]1CCc1ccc(C(F)(F)F)cc1 : 2.24
2) Cc1nc(C(=O)N2CCCC[C@H]2CNC(=O)c2cccc3occc23)c(-c2ccc(F)cc2)s1 : 0.316
3) Cc1ccc(-c2ncccn2)c(C(=O)N2C[C@H](COc3ccc(F)cn3)CC[C@H]2C)c1 : 0.417
4) COc1ccnc(N2CCC3(CCCN(Cc4c[nH]c5ccccc45)C3=O)CC2)n1 : 28.2

* * *

- test_target: human OX1R (Homo sapiens, UniProt O43613)
- Construct: expressed in transfected cells; host or cells: CHO; cells from GNF, San Diego
- method_description: FLIPR orexin A-stimulated calcium accumulation, human OX1R
- Assay type: cell-based
- condition: CHO cells, antagonist incubation 1 h
value_type: Ki

1. Cc1ccc(-c2ncccn2)c(C(=O)N2C[C@H](COc3ccc(F)cn3)CC[C@H]2C)c1 : 1.62 nM
2. Cc1nc(C(=O)N2CCCC[C@H]2CNC(=O)c2cccc3occc23)c(-c2ccc(F)cc2)s1 : 1.35 nM

* * *

- test_target: mouse OX2R (Mus musculus)
- Construct: expressed in transfected cells; host or cells: HEK; cells from GNF, San Diego
- Sequence (P58308 whole entry): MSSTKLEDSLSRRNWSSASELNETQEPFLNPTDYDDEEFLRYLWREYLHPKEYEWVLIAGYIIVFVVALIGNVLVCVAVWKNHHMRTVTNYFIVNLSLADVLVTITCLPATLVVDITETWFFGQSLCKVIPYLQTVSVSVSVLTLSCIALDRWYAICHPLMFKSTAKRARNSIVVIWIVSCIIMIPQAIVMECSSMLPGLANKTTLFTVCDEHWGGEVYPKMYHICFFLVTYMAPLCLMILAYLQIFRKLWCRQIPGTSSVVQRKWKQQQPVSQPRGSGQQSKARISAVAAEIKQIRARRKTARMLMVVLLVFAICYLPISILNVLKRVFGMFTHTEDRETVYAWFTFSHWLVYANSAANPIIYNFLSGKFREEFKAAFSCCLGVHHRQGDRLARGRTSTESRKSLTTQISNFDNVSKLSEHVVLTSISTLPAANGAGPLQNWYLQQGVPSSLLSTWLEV
- method_description: FLIPR orexin A-stimulated calcium accumulation, mouse OX2R
- Type: cell-based
- condition: HEK cells, antagonist incubation 1 h, read-out: pKi (converted)
- From the text: Chinese Hamster Ovary (CHO) cells stably transfected with the cDNA encoding the human OX1R (CHO-hOX1) or OX2R (CHO-hOX2) were used (kindly provided by T. Cremer and Dr. S. Geisse, NIBR Basel, Switzerland). For measurements of calcium accumulation using FLIPR® (Fluorescent Imaging Plate Reader) assay, CHO or Human Embryonic Kidney (HEK) cells stably expressing mouse, rat or human OX1R or OX2R (kindly provided by Dr. A. Chen, GNF, San Diego, CA, USA) were used. […]
// Ki lookup, one value per entry
value_type: Ki (nM)

1) CNC(=O)[C@@H](c1ccccc1)N1CCc2cc(OC)c(OC)cc2[C@@H]1CCc1ccc(C(F)(F)F)cc1 : 9.33
2) Cc1nc(C(=O)N2CCCC[C@H]2CNC(=O)c2cccc3occc23)c(-c2ccc(F)cc2)s1 : 2.82
3) COc1ccnc(N2CCC3(CCCN(Cc4c[nH]c5ccccc45)C3=O)CC2)n1 : 79.4
4) Cc1ccc(-c2ncccn2)c(C(=O)N2C[C@H](COc3ccc(F)cn3)CC[C@H]2C)c1 : 2.09
